assay: Hemolytic activity in sheep erythrocytes incubated for 1 hr by absorbance based analysis; type: toxicity, cell-based, Ovis aries, Erythrocyte; settings: sheep erythrocytes
Known HC50 at 1 h of a selection of molecules
Measured Quantity: HC50 at 1 h

[[record]]
molecule = "C[C@@H](O)[C@H]1C(=O)N2C(C(=O)O)=C(S[C@@H]3CN[C@H](C(=O)N(C)C)C3)[C@H](C)[C@H]12 [MEROPENEM]"
measured_quantity = "HC50 at 1 h"
observed_result = "> 1280 µg/mL"

[[record]]
molecule = "CCCCCCCCCC[N+](C)(C)CCCOc1ccc(-c2ccc(OCCC[N+](C)(C)CCCCCCCCCC)cc2)cc1.[Br-].[Br-]"
measured_quantity = "HC50 at 1 h"
observed_result = "18 µg/mL"

[[record]]
molecule = "CCCCCCCC[N+](C)(C)CCCOc1ccccc1-c1ccccc1OCCC[N+](C)(C)CCCCCCCC.[Br-].[Br-]"
measured_quantity = "HC50 at 1 h"
observed_result = "109 µg/mL"

[[record]]
molecule = "CCCCCCCCCC[N+](C)(C)CCCOc1ccccc1-c1ccccc1OCCC[N+](C)(C)CCCCCCCCCC.[Br-].[Br-]"
measured_quantity = "HC50 at 1 h"
observed_result = "10 µg/mL"

[[record]]
molecule = "CCCCCCCCCCCC[N+](C)(C)CCCOc1ccccc1-c1ccccc1OCCC[N+](C)(C)CCCCCCCCCCCC.[Br-].[Br-]"
measured_quantity = "HC50 at 1 h"
observed_result = "12 µg/mL"

[[record]]
molecule = "CCCCCC[N+](C)(C)CCCOc1ccc(-c2ccc(OCCC[N+](C)(C)CCCCCC)cc2)cc1.[Br-].[Br-]"
measured_quantity = "HC50 at 1 h"
observed_result = "487 µg/mL"


* * *

Each entry below lists one item and its recorded IC50 at 72 h value.
experiment: Cytotoxicity against human WPMY-1 cells assessed as inhibition of cell growth incubated for 72 hrs by CCK-8 assay; format: toxicity, cell-based
Measured Quantity: IC50 at 72 h

[[record]]
compound = "CCCCCC[N+](C)(C)CCCOc1cccc(-c2cccc(OCCC[N+](C)(C)CCCCCC)c2)c1.[Br-].[Br-]"
observed_result = "23.3 µg/mL"

[[record]]
compound = "C=C[C@]1(C)C[C@@H](OC(=O)CS[C@@H]2C[C@H]3CC[C@@H](C2)N3C)[C@]2(C)[C@H](C)CC[C@]3(CCC(=O)[C@H]32)[C@@H](C)[C@@H]1O [RETAPAMULIN]"
observed_result = "13.9 µg/mL"


* * *

tested on: Stenotrophomonas maltophilia; assay: Antimicrobial activity against Stenotrophomonas maltophilia ATCC 17808 incubated for 16 to 20 hrs by CLSI based broth dilution method; format: functional; settings: Stenotrophomonas maltophilia, ATCC 17808; time 16-20 hrs; read-out: MIC
Measured Quantity: log10(MIC) (log10 of the value in µg/mL)

[[record]]
given_smiles = "CCCCCCCC[N+](C)(C)CCCOc1ccc(-c2ccc(OCCC[N+](C)(C)CCCCCCCC)cc2)cc1.[Br-].[Br-]"
observed_result = 0.30

[[record]]
given_smiles = "CCCCCCCCCC[N+](C)(C)CCCOc1ccc2ccccc2c1-c1c(OCCC[N+](C)(C)CCCCCCCCCC)ccc2ccccc12.[Br-].[Br-]"
observed_result = 1.20

[[record]]
given_smiles = "CCCCCC[N+](C)(C)CCCOc1cccc(-c2cccc(OCCC[N+](C)(C)CCCCCC)c2)c1.[Br-].[Br-]"
observed_result = 1.20

[[record]]
given_smiles = "CCCCCC[N+](C)(C)CCCOc1ccccc1-c1ccccc1OCCC[N+](C)(C)CCCCCC.[Br-].[Br-]"
observed_result = 2.11

[[record]]
given_smiles = "CCCCCCCC[N+](C)(C)CCCOc1ccc2ccccc2c1-c1c(OCCC[N+](C)(C)CCCCCCCC)ccc2ccccc12.[Br-].[Br-]"
observed_result = 0.30

[[record]]
given_smiles = "CCCCCCCCCC[N+](C)(C)CCCOc1ccccc1-c1ccccc1OCCC[N+](C)(C)CCCCCCCCCC.[Br-].[Br-]"
observed_result = 0.60

[[record]]
given_smiles = "CCCCCCCCCC[N+](C)(C)CCCOc1cccc(-c2cccc(OCCC[N+](C)(C)CCCCCCCCCC)c2)c1.[Br-].[Br-]"
observed_result = 0.30

[[record]]
given_smiles = "CCCCCCCCCC[N+](C)(C)CCCOc1ccc(-c2ccc(OCCC[N+](C)(C)CCCCCCCCCC)cc2)cc1.[Br-].[Br-]"
observed_result = 0.30

[[record]]
given_smiles = "CCCCCC[N+](C)(C)CCCOc1ccc2ccccc2c1-c1c(OCCC[N+](C)(C)CCCCCC)ccc2ccccc12.[Br-].[Br-]"
observed_result = 0.90

[[record]]
given_smiles = "CCCCCCCC[N+](C)(C)CCCOc1cccc(-c2cccc(OCCC[N+](C)(C)CCCCCCCC)c2)c1.[Br-].[Br-]"
observed_result = 0.30

[[record]]
given_smiles = "CCCCCC[N+](C)(C)CCCOc1ccc(-c2ccc(OCCC[N+](C)(C)CCCCCC)cc2)cc1.[Br-].[Br-]"
observed_result = 0.00

[[record]]
given_smiles = "CCCCCCCCCCCC[N+](C)(C)CCCOc1ccccc1-c1ccccc1OCCC[N+](C)(C)CCCCCCCCCCCC.[Br-].[Br-]"
observed_result = 1.51

[[record]]
given_smiles = "CCCCCCCC[N+](C)(C)CCCOc1ccccc1-c1ccccc1OCCC[N+](C)(C)CCCCCCCC.[Br-].[Br-]"
observed_result = 0.30


* * *

MIC listing for selected molecules.
tested on: Enterococcus faecium; experiment: Antimicrobial activity against Enterococcus faecium ATCC 29212 incubated for 16 to 20 hrs by CLSI based broth dilution method; format: functional; conditions: Enterococcus faecium, ATCC 29212, time 16-20 hrs; read-out: MIC
Positions of bridges follow the written chain, without caps; N, C: chain ends. Non-standard residues stand in square brackets, D forms with d. Residues, ends and D or L forms follow the SMILES beside them. *: point of attachment. Ileψ(thiazoline)Cys = CC[C@H](C)[C@H](N)C1=N[C@H](C(=O)*)CS1; dOrn = NCCC[C@@H](N)C(=O)O
Measured Quantity: MIC (µg/mL)

[[record]]
molecule = "CCCCCCCCCC[N+](C)(C)CCCOc1ccc2ccccc2c1-c1c(OCCC[N+](C)(C)CCCCCCCCCC)ccc2ccccc12.[Br-].[Br-]"
observed_result = 16

[[record]]
molecule = "CCCCCC[N+](C)(C)CCCOc1cccc(-c2cccc(OCCC[N+](C)(C)CCCCCC)c2)c1.[Br-].[Br-]"
observed_result = 8

[[record]]
molecule = "CCCCCCCC[N+](C)(C)CCCOc1ccccc1-c1ccccc1OCCC[N+](C)(C)CCCCCCCC.[Br-].[Br-]"
observed_result = 0.5

[[record]]
molecule = "CC[C@H](C)[C@H](N)C1=N[C@H](C(=O)N[C@@H](CC(C)C)C(=O)N[C@H](CCC(=O)O)C(=O)N[C@H](C(=O)N[C@H]2CCCCNC(=O)[C@H](CC(N)=O)NC(=O)[C@@H](CC(=O)O)NC(=O)[C@H](Cc3cnc[nH]3)NC(=O)[C@@H](Cc3ccccc3)NC(=O)[C@H]([C@@H](C)CC)NC(=O)[C@@H](CCCN)NC2=O)[C@@H](C)CC)CS1 [BACITRACIN] ({Ileψ(thiazoline)Cys}-L[dE]IK[dOrn]I[dF]H[dD]N; lactam 4-C)"
observed_result = 16

[[record]]
molecule = "CCCCCCCCCC[N+](C)(C)CCCOc1ccccc1-c1ccccc1OCCC[N+](C)(C)CCCCCCCCCC.[Br-].[Br-]"
observed_result = 1

[[record]]
molecule = "CCCCCC[N+](C)(C)CCCOc1ccc(-c2ccc(OCCC[N+](C)(C)CCCCCC)cc2)cc1.[Br-].[Br-]"
observed_result = 1

[[record]]
molecule = "CCCCCCCC[N+](C)(C)CCCOc1ccc2ccccc2c1-c1c(OCCC[N+](C)(C)CCCCCCCC)ccc2ccccc12.[Br-].[Br-]"
observed_result = 2


* * *

tested on: Escherichia coli; assay: Antimicrobial activity against Escherichia coli ATCC 25922 incubated for 16 to 20 hrs by CLSI based broth dilution method; assay type: functional; conditions: Escherichia coli, ATCC 25922; time 16-20 hrs; read-out: MIC
Each record here notes measured MIC.
Measured Quantity: MIC (µg/mL)

[[record]]
given_smiles = "CCCCCCCC[N+](C)(C)CCCOc1ccccc1-c1ccccc1OCCC[N+](C)(C)CCCCCCCC.[Br-].[Br-]"
observed_result = 1

[[record]]
given_smiles = "CCCCCCCC[N+](C)(C)CCCOc1ccc(-c2ccc(OCCC[N+](C)(C)CCCCCCCC)cc2)cc1.[Br-].[Br-]"
observed_result = 1

[[record]]
given_smiles = "CCCCCC[N+](C)(C)CCCOc1ccc(-c2ccc(OCCC[N+](C)(C)CCCCCC)cc2)cc1.[Br-].[Br-]"
observed_result = 2

[[record]]
given_smiles = "CCCCCCCC[N+](C)(C)CCCOc1cccc(-c2cccc(OCCC[N+](C)(C)CCCCCCCC)c2)c1.[Br-].[Br-]"
observed_result = 1

[[record]]
given_smiles = "CCCCCCCCCCCC[N+](C)(C)CCCOc1ccccc1-c1ccccc1OCCC[N+](C)(C)CCCCCCCCCCCC.[Br-].[Br-]"
observed_result = 32

[[record]]
given_smiles = "CCCCCCCC[N+](C)(C)CCCOc1ccc2ccccc2c1-c1c(OCCC[N+](C)(C)CCCCCCCC)ccc2ccccc12.[Br-].[Br-]"
observed_result = 2

[[record]]
given_smiles = "CCCCCCCCCC[N+](C)(C)CCCOc1cccc(-c2cccc(OCCC[N+](C)(C)CCCCCCCCCC)c2)c1.[Br-].[Br-]"
observed_result = 2

[[record]]
given_smiles = "CCCCCC[N+](C)(C)CCCOc1ccccc1-c1ccccc1OCCC[N+](C)(C)CCCCCC.[Br-].[Br-]"
observed_result = 128

[[record]]
given_smiles = "CCCCCC[N+](C)(C)CCCOc1ccc2ccccc2c1-c1c(OCCC[N+](C)(C)CCCCCC)ccc2ccccc12.[Br-].[Br-]"
observed_result = 8

